These measurements were taken from patent US8183201B2.

Molecular target: platelet aggregation (Homo sapiens, UniProt P05106+P08514)
Type: cell-based
readout: pIC50
Answers are plain numbers, as −log10 of the molar value.

// fetch pIC50 given entry PGP: rhodostomin variant having a RGD motif variant ^48PRGDGP^53, SEQ ID NO: 42 6.55

---

Tested on: ovariectomized (OVX) mice
Set-up: species or system ICR mice
Details: mouse, in vivo, po, 1.5 mg/kg
readout: BMC

Answered examples (3):
[
  {
    "substance": "ARGDDL: rhodostomin variant with RGD motif ^48Ala-Arg-Gly-Asp-Asp-Leu^53, SEQ ID NO: 32",
    "BMC": "0.624 ± 0.007 g"
  },
  {
    "substance": "RD: rhodostomin variant having a RGD motif variant ^48PRLDMP^53, SEQ ID NO: 36",
    "BMC": "0.627 ± 0.008 g"
  },
  {
    "substance": "PRLDDL: rhodostomin variant with RGD motif ^48Pro-Arg-Leu-Asp-Asp-Leu^53, SEQ ID NO: 37",
    "BMC": "0.563 ± 0.056 g"
  }
]

Read the next record carefully.
Provide BMC, recorded with ovariectomized (OVX) mice, of RID: rhodostomin variant with RGD motif ^48Pro-Arg-Ile-Asp-Met-Pro^53, SEQ ID NO: 39 0.622 ± 0.004 g
